Where do these numbers come from? They come from PubChem BioAssay (EPA / NIEHS).

- assay.text: BSK_SAg_Proliferation: Cell Proliferation Assessment in the BioMAP Diversity Plus: SAg Assay (AID 2283095);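 note: relative cell number as total protein by SRB absorbance in sub-confluent culture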
- condition.label: primary human HUVEC with PBMC
Active and inactive are the calls of the source. Rule for the calls: active = hit-call score of the fitted dose curve at least 0.9, where 1 is the maximum; inactive = score below 0.9.
Outcome codes: active, inactive

[
  {
    "compound.structure": "COc1cccc(O)c1",
    "class": "inactive"
  },
  {
    "compound.structure": "CCCCCCCCCCCCOS(=O)(=O)O",
    "class": "inactive"
  },
  {
    "compound.structure": "O=C(O)CCC(F)(F)C(F)(F)C(F)(F)C(F)(F)C(F)(F)F",
    "class": "inactive"
  },
  {
    "compound.structure": "OCCN1CN(CCO)CN(CCO)C1",
    "class": "active"
  },
  {
    "compound.structure": "C=CC(=O)OCCC(F)(F)C(F)(F)C(F)(F)C(F)(F)C(F)(F)C(F)(F)C(F)(F)C(F)(F)F",
    "class": "inactive"
  },
  {
    "compound.structure": "Cc1cccc2c1ccc1ccccc12",
    "class": "inactive"
  },
  {
    "compound.structure": "C[C@]12CC[C@@H]3c4ccc(O)cc4CC[C@H]3[C@@H]1C[C@@H](O)[C@@H]2O",
    "class": "inactive"
  },
  {
    "compound.structure": "Cc1ccc(C(=O)c2ccccc2)cc1",
    "class": "inactive"
  },
  {
    "compound.structure": "O=C(c1ccccc1)c1ccccc1",
    "class": "inactive"
  },
  {
    "compound.structure": "COC1=CC(=O)C[C@@H](C)[C@]12Oc1c(Cl)c(OC)cc(OC)c1C2=O",
    "class": "inactive"
  },
  {
    "compound.structure": "CCOC(=O)CN[C@@H](C(=O)N1CC[C@H]1C(=O)NCc1ccc(/C(N)=N/O)cc1)C1CCCCC1",
    "class": "inactive"
  },
  {
    "compound.structure": "CCCCc1oc2ccccc2c1C(=O)c1cc(I)c(OCCN(CC)CC)c(I)c1",
    "class": "active"
  },
  {
    "compound.structure": "CCCCCCCCCCCCCCCCCC[N+](C)(C)Cc1ccccc1",
    "class": "active"
  },
  {
    "compound.structure": "O=C(CCCN1CCC(O)(c2ccc(Cl)cc2)CC1)c1ccc(F)cc1",
    "class": "active"
  },
  {
    "compound.structure": "CN(C)c1ccc(C(=C2C=CC(=[N+](C)C)C=C2)c2ccccc2)cc1",
    "class": "active"
  },
  {
    "compound.structure": "CN(C)CCOC(c1ccccc1)c1ccccc1",
    "class": "inactive"
  }
]

* * *

- assay.text: ATG_BRE_CIS: Attagene CIS-FACTORIAL HepG2 Assay for human Bone Morphogenetic Protein (BMP) Response Element (BRE) (AID 2282933)
- condition.label: HepG2 BMP response element reporter, Attagene transcription factor profiling; actives raise or lower the signal
The source made the active and inactive calls. How the source made its calls: active means hit-call score of the fitted dose curve at least 0.9, where 1 is the maximum; inactive means score below 0.9.
Outcome codes: yes (1) for active, no (0) for inactive

[
  {
    "compound.structure": "O=S(=O)(O)c1ccccc1",
    "class": "no (0)"
  },
  {
    "compound.structure": "O=c1cc(-c2ccccc2)oc2ccc3ccccc3c12",
    "class": "no (0)"
  },
  {
    "compound.structure": "NC(C(F)(F)F)C(F)(F)F",
    "class": "no (0)"
  },
  {
    "compound.structure": "CCCCCCC(C)(C)C(=O)O",
    "class": "no (0)"
  },
  {
    "compound.structure": "C[N+](C)(CCCNS(=O)(=O)CCC(F)(F)C(F)(F)C(F)(F)C(F)(F)C(F)(F)C(F)(F)F)CC(=O)[O-]",
    "class": "no (0)"
  },
  {
    "compound.structure": "NNc1nc(-c2ccc([N+](=O)[O-])cc2)cs1",
    "class": "yes (1)"
  }
]
